- tested.on: T1, CC CKR1, stably expressed on HEK 293 cells (Homo sapiens (Human), UniProt P32246 1-355)
- T1 construct: also called CC CKLR1
- T1 sequence: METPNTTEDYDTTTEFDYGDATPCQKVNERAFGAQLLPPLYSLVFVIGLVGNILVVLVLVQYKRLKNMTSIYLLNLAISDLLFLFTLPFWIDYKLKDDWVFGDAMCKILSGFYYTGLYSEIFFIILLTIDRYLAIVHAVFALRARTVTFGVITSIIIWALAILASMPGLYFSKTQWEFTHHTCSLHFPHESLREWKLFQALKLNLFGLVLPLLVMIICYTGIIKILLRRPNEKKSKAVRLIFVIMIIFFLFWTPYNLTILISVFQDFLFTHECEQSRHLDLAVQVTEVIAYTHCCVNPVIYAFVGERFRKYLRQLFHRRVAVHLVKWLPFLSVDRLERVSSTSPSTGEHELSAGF
- method.summary: homologous competition against ^125I-MIP-1α on CC CKR1-transfected HEK 293 cells, 4° C.
experimental.readout: Ki
Note: a bare number is incomplete; add the unit.

In plain terms, MIP-1α (ligand, human, UniProt P10147 23-92, looked up, also called unlabeled MIP-1α) ASLAADTPTACCFSYTSRQIPQNFIADYFETSSQCSKPGVIFLTKRSRQVCADPSEEWVQKYVSDLELSA has a documented Ki of 10 nM
